Ref: paper PMC2633595

Each record here notes measured pKd.
MEASURED_ON: GST-Rab7 (Canis lupus familiaris, UniProt P18067)
Sequence (P18067 whole entry): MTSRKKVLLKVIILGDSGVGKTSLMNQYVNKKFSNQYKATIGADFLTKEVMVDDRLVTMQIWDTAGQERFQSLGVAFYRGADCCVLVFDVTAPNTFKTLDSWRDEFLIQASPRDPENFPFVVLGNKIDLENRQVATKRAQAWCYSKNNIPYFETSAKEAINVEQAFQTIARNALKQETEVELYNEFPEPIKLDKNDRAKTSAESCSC
Type: binding, canine
TEST_SETTINGS: GST-Rab7, 1 mM EDTA buffer, 2 h at 4°C
Quick note: pKd values are minus log10 of concentrations in mol/L.

Incoming: Give its pKd value. Item: BODIPY FL GDP 2′-(or-3′)-O-(N-(2-aminoethyl)urethane)
Outgoing: 7.27

***
Incoming: Give its pKd value. Item: BODIPY FL GTP 2’-(or-3’)-O-(N-(2-aminoethyl)urethane
Outgoing: 6.82

---

MEASURED_ON: GST-Rab7 (Canis lupus familiaris, UniProt P18067)
Type: binding, canine
TEST_SETTINGS: GST-Rab7, 1 mM MgCl2 buffer
PARAMETER_MEASURED: Kd (nM)
Please give a number only; it is taken to be in nM.

Incoming: Give its Kd value. Item: BODIPY FL GTP-γ-NH amide
Outgoing: 70

Turning now to a further record.
Incoming: Give its Kd value. Item: BODIPY FL GTP 2’-(or-3’)-O-(N-(2-aminoethyl)urethane
Outgoing: 20
